Format: in vivo, human
Details: human, plasma, iv, 3 mg/kg
Starred links: 1 amine or outer side, 2 acyl side, 3 side chain; linkers in the order of their positions; H or OH if unused. Positions of bridges follow the written chain, without caps; N, C: chain ends. Non-standard residues stand in square brackets, D forms with d. Residues, ends and D or L forms follow the SMILES beside them. *: point of attachment. pTerphenylCO(4''-OnC5H11) = CCCCCOc1ccc(-c2ccc(-c3ccc(C(=O)*)cc3)cc2)cc1; Orn(4R-OH,5R-OH) = O=C([C@H](C[C@@H](O)[C@@H](O)N[*:3])N[*:1])[*:2]; hTyr(3S-OH,4S-OH) = N[C@H](C(=O)O)[C@H](O)[C@@H](O)c1ccc(O)cc1; Pro(3S-OH,4S-Me) = C[C@H]1CN[C@H](C(=O)O)[C@H]1O; Hyp = O=C(O)[C@@H]1C[C@@H](O)CN1
measured_attribute: level at 24 h (ng/mL)

[
  {
    "compound": "CCCCCOc1ccc(-c2ccc(-c3ccc(C(=O)N[C@H]4C[C@@H](O)[C@@H](O)NC(=O)[C@@H]5[C@@H](O)[C@@H](C)CN5C(=O)[C@H]([C@@H](C)O)NC(=O)[C@H]([C@H](O)[C@@H](O)c5ccc(O)cc5)NC(=O)[C@@H]5C[C@@H](O)CN5C(=O)[C@H]([C@@H](C)O)NC4=O)cc3)cc2)cc1 [anidulafungin, Anidulafungin] ({pTerphenylCO(4''-OnC5H11)}-[Orn(4R-OH,5R-OH)]T[Hyp][hTyr(3S-OH,4S-OH)]T[Pro(3S-OH,4S-Me)]; lactam 1-C)",
    "measured_attribute": "level at 24 h",
    "assay_value": 2100
  }
]
